>  <Chemical Smiles>
COc1ccc(CSCC[n+]2cc3ccccc3c3ccccc32)cc1.[Br-]

>  <melting point>
182 to 183 °C

$$$$
>  <Chemical Smiles>
[Br-].[Br-].c1ccc2c(c1)c[n+](CCN1CCN(CC[n+]3cc4ccccc4c4ccccc43)CC1)c1ccccc21

>  <melting point>
260 to 261 °C

$$$$
>  <Chemical Smiles>
[Br-].c1ccc2c(c1)c[n+](CCN1CCCCC1)c1ccccc21

>  <melting point>
167 to 168 °C

$$$$
>  <Chemical Smiles>
CC(C)N1CC[n+]2c1c1ccccc1c1ccccc12.[Br-]

>  <melting point>
250 to 251 °C (dec.)

$$$$

====

# Tested on: Cisplatin resistant cell line MCP1
# Experiment: growth (tetrazolium dye-based microtitration) cytotoxicity assay, MCP1
# Type: cell-based, human
# Particulars: rapport of the IC50 between A2780 and MCP1; the lower RF the better

>  <Compound>
CC[n+]1c(-c2ccccc2)c2cc(N)ccc2c2ccc(N)cc21.[Br-] [EtBr, ethidium bromide, reference compound]

>  <Subject Of Test>
Cisplatin resistant cell line MCP1

>  <RF2>
1.5

$$$$
>  <Compound>
[Br-].[Br-].c1ccc2c(c1)c1[n+](c3ccccc23)CCN1CCN1CCN(CCN2CC[n+]3c2c2ccccc2c2ccccc23)CC1

>  <Subject Of Test>
Cisplatin resistant cell line MCP1

>  <RF2>
0.2

$$$$
>  <Compound>
CCc1ccc(N2CC[n+]3c2c2ccccc2c2ccccc23)cc1.[Br-]

>  <Subject Of Test>
Cisplatin resistant cell line MCP1

>  <RF2>
0.7

$$$$
>  <Compound>
C[C@H](CO)N1CC[n+]2c1c1ccccc1c1ccccc12.[Br-]

>  <Subject Of Test>
Cisplatin resistant cell line MCP1

>  <RF2>
1.7

$$$$
>  <Compound>
COc1ccc2c(c[n+](C)c3c4cc5c(cc4ccc23)OCO5)c1OC.[Cl-] [Chelerythrine, reference compound]

>  <Subject Of Test>
Cisplatin resistant cell line MCP1

>  <RF2>
0.5

$$$$
>  <Compound>
[Br-].c1ccc2c(c1)c[n+](CCN1CCCCC1)c1ccccc21

>  <Subject Of Test>
Cisplatin resistant cell line MCP1

>  <RF2>
0.6

$$$$
>  <Compound>
c1ccc2c(c1)c1[n+](c3ccccc23)CCN1

>  <Subject Of Test>
Cisplatin resistant cell line MCP1

>  <RF2>
0.5

$$$$
>  <Compound>
COc1ccc(CN2CC[n+]3c2ccc2ccccc23)cc1

>  <Subject Of Test>
Cisplatin resistant cell line MCP1

>  <RF2>
0.4

$$$$

====

# System: human ovarian tumour cell line A2780
# Experiment: growth (tetrazolium dye-based microtitration) cytotoxicity assay, A2780
# Format: cell-based
# Particulars: overall statement across A2780, A2780/cp70 and MCP1
Test Readout: cytotoxicity (in words)

>  <Chemical Smiles>
COC(=O)[C@H](Cc1ccccc1)N1CC[n+]2c1c1ccccc1c1ccccc12.[Br-]

>  <Data Value>
moderate activity

$$$$
>  <Chemical Smiles>
COC(=O)CN1CC[n+]2c1c1ccccc1c1ccccc12.[Br-]

>  <Data Value>
moderate activity

$$$$

====

# Test system: Cisplatin resistant cell line MCP1
# Experiment: growth (tetrazolium dye-based microtitration) cytotoxicity assay, MCP1
# Assay type: cell-based, human
# Particulars: rapport of the IC50 between A2780 and MCP1; the lower RF the better
Let's look at some compounds and their measured RF2.
Test Readout: RF2

>  <Compound>
N.N.[Cl][Pt][Cl] [Cisplatin, reference compound]

>  <Test Readout>
RF2

>  <Data Value>
1.7

$$$$
>  <Compound>
[Br-].[Br-].c1ccc2c(c1)c1[n+](c3ccccc23)CCN1CCNCCN1CC[n+]2c1c1ccccc1c1ccccc12 [LS1-81]

>  <Test Readout>
RF2

>  <Data Value>
0.8

$$$$
>  <Compound>
Br.Br.Br.Br.c1ccc2c(c1)c1[n+](c3ccccc23)CCN1CC[N+]12CC[N+](CCN3CC[n+]4c3c3ccccc3c3ccccc34)(CC1)CC2 [AP11-36]

>  <Test Readout>
RF2

>  <Data Value>
1.3

$$$$
>  <Compound>
Br.Br.c1ccc2c(c1)c[n+](CCN1CCN(CC[n+]3cc4ccccc4c4ccccc43)CC1)c1ccccc21 [AP4-48]

>  <Test Readout>
RF2

>  <Data Value>
0.6

$$$$
>  <Compound>
[Br-].[Br-].[Br-].c1ccc2c(c1)c[n+](CCN1CCCN(CC[n+]3cc4ccccc4c4ccccc43)CCCN(CC[n+]3cc4ccccc4c4ccccc43)CCC1)c1ccccc21 [AP4-55]

>  <Test Readout>
RF2

>  <Data Value>
0.5

$$$$
>  <Compound>
[Br-].[Br-].[Br-].c1ccc2c(c1)c1[n+](c3ccccc23)CCN1[C@H]1C[C@@H](N2CC[n+]3c2c2ccccc2c2ccccc23)C[C@@H](N2CC[n+]3c2c2ccccc2c2ccccc23)C1 [AP3-42]

>  <Test Readout>
RF2

>  <Data Value>
1.2

$$$$

Origin of values: patent US7947703B2
